# System: M423T HCV replicon
# Protocol Summary: HCV replicon cell assay, real-time PCR, M423T
# Assay type: cell-based, HCV genotype 1b
# Cond: Hepatitis C virus, 96 h, 4 days, HCV RNA by real time PCR
Value Type: IC50 (nM)
Answers are plain numbers, in nM.

Data request: Provide measured IC50 value, entry: CC1CCC(C(=O)N(c2cc(C#CC(C)(C)C)sc2C(=O)O)C2CCC(O)CC2)CC1 (stereo not shown)
Data returned: 319
